biological target: EP2 (Homo sapiens); assay: EP2 flipr functional assay; assay type: cell-based
Sequence (P43116 whole entry): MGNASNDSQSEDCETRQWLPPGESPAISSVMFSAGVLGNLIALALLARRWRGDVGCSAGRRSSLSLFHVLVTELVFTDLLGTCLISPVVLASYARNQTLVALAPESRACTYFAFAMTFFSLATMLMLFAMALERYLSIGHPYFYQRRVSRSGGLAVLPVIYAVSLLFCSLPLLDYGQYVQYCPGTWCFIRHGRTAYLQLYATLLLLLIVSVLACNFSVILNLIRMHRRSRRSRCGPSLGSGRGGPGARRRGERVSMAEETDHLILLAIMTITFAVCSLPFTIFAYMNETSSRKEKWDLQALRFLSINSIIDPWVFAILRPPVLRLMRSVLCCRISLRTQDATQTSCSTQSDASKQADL
readout_kind: pEC50
The read-out pEC50 is expressed as -log10 of concentration in moles per litre.

Req: What value of pEC50 has been recorded for this entry: CCCCC[C@H](O)c1ccc(N2C(=O)CCN2CCCc2ccc(C(=O)O)s2)cc1 (stereo in doubt)
Resp: 7.10

* * *

Target: UniProtKB P43115
Sequence (P43115 whole entry): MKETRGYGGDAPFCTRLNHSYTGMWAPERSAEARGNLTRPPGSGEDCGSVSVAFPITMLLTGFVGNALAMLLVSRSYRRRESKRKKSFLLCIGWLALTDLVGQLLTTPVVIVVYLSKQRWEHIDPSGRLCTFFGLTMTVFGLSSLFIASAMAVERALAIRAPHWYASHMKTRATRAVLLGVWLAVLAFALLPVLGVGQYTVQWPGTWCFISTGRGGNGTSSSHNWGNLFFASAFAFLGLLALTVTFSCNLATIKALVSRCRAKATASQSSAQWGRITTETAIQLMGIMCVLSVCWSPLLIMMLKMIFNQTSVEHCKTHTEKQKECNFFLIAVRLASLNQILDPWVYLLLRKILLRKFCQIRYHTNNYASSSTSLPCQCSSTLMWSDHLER
Assay: Other receptors functional assay, hEP3A
Assay type: cell-based
Text: U.S. patent application Ser. No. 11/553,143, filed on Oct. 26, 2006, incorporated by reference herein, describes the methods used to obtain the in vitro data in the table below.
readout_kind: EC50 (nM)
Lab book: enter the figure in nM, no units written.

Req: Lab note: need EC50 for CCCCC[C@H](O)c1ccc(N2C(=O)CCN2CCCc2ccc(C(=O)O)s2)cc1 (stereo in doubt) on UniProtKB P43115, anyone have it?
Resp: 5070
